# assayedSystem: HCV NS3 helicase (Hepatitis C virus genotype 1b, UniProt P26662)
# Construct: The full-length HCV NS3 protein, with serine protease and NTPase/helicase activities; made in house
# Sequence (P26662 1027-1657): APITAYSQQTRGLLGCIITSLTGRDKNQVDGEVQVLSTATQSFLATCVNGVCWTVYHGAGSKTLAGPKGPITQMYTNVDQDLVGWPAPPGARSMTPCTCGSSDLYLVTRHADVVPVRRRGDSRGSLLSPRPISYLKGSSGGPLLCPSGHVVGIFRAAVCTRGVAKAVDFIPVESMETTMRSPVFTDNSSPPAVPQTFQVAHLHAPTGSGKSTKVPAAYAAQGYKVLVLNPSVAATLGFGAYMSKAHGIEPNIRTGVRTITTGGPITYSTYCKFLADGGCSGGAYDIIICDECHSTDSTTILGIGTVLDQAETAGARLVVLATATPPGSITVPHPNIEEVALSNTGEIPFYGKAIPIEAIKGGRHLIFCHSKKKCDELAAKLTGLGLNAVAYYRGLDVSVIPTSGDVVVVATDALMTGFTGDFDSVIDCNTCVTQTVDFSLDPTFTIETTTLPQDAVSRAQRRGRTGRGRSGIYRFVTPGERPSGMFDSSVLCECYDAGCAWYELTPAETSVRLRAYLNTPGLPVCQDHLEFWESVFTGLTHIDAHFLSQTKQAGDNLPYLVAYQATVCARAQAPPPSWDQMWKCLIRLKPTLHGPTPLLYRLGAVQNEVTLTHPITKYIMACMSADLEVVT
# testDetails: FRET-based fluorescence helicase assay (dsRNA unwinding)
# Format: biochemical
# assaySetup: fluorescence helicase assay, dsRNA substrate, 240 nM NS3, 5 mM ATP, 37 °C; read-out: IC50 for NS3 helicase inhibition
pIC50 values, listed per item
Give only the number. pIC50 is defined as minus log10 of concentration in molar units.

[
  {
    "compound": "O=C(O)c1cc(O)c2c(c1)[C@H]([C@@H]1c3cccc(O)c3C(=O)c3c(O)cc(C(=O)O)cc31)c1cccc(O)c1C2=O",
    "pIC50": 6.10
  }
]

Value lookup for pIC50; key = O=C1c2c(O)ccc(O)c2C(=O)c2c(O)ccc(O)c21 [1,4,5,8-tetrahydroxyanthraquinone] 5.22

====

# assayedSystem: HCV NS3 helicase (Hepatitis C virus genotype 1b, UniProt P26662)
# Construct: The full-length HCV NS3 protein, with serine protease and NTPase/helicase activities; made in house
# testDetails: FRET-based fluorescence helicase assay (dsRNA unwinding)
# Format: biochemical
# assaySetup: fluorescence helicase assay, dsRNA substrate, 240 nM NS3, 5 mM ATP, 37 °C; read-out: IC50 for NS3 helicase inhibition
valueType: pIC50
Reminder that pIC50 means the negative base-10 logarithm of the concentration expressed in mol/L.

Requested field: pIC50. Item: O=C1c2ccc(O)c(O)c2C(=O)c2c(O)ccc(O)c21 [1,4,5,6-tetrahydroxyanthraquinone] 4.01

Reported pIC50, compound O=C1c2ccccc2C(=O)c2c1cc(O)c(O)c2O [1,2,3-trihydroxyanthraquinone] : ____ 4.74

Can you share its pIC50? I mean this compound: O=C1c2ccccc2C(=O)c2c(O)ccc(O)c21 [1,4-dihydroxyanthraquinone] 4.27

Entry source: paper PMC4581254
